Protocol Notes: chemical genetic growth profiling, strain panel (AID 1159580);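 also: tested at 20 µM; growth read once vehicle control cultures reached saturation at 30 °C; lower values mean less growth of the strain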
Condition Details: S. cerevisiae deletion strains, growth OD, locus YOR061W, strain CKA2
The campaign covered roughly 5,500 compounds. About 2,000 (36%) were called active. Roughly 18% stayed inconclusive and do not appear here. Rule as the data show it: active = normalized growth mostly below about 0.91 (no sharp cut-off); inconclusive = no clear call, values can overlap the other calls; inactive = mostly above about 0.92. The list shows a part of the results.
Returns: one label drawn from active, inactive

Below are worked cases with known answers.
{"Compound": "COc1ccc(-c2coc3c(OC)c(O)ccc3c2=O)cc1", "Class": "inactive"}
{"Compound": "S=C=NCc1ccccc1", "Class": "active"}
{"Compound": "CN1C2CC3C[C@H]1C(O3)C2O (some centres undefined)", "Class": "inactive"}
{"Compound": "COc1ccc2c(c1)OC[C@@H](Cc1ccc(OC)c(OC)c1)[C@@H]2O", "Class": "inactive"}
{"Compound": "C=CC(C)(C)c1c2c(c(O)c3c(=O)c4ccc(O)c(O)c4oc13)C=CC(C)(C)O2", "Class": "active"}
{"Compound": "CCC(C(=O)O)c1ccccc1 (centres undefined)", "Class": "inactive"}
{"Compound": "C=CCc1ccc2c(c1)OCO2", "Class": "inactive"}
{"Compound": "N=c1nc(N2CCCCC2)cc(N)n1O", "Class": "inactive"}
{"Compound": "Cc1cc(=O)c2c(O)cc(O)c(C)c2o1", "Class": "inactive"}
{"Compound": "COc1ccc(-c2coc3c(OC)c(OC)ccc3c2=O)cc1", "Class": "inactive"}

Shifting focus to the compound that follows.
Outcome? CO[C@H]1C[C@H](O[C@H]2[C@H](C)[C@@H](OC3O[C@H](C)C[C@H](N(C)C)[C@H]3O)[C@@H](C)C[C@]3(CO3)C(=O)[C@H](C)[C@@H](O)[C@@H](C)[C@@H](C)OC(=O)[C@@H]2C)O[C@@H](C)[C@@H]1O (some centres undefined)
inactive

Origin of values: PubChem BioAssay AID1159580
